- study system: Cathepsin S (Homo sapiens)
- Sequence (P25774 whole entry): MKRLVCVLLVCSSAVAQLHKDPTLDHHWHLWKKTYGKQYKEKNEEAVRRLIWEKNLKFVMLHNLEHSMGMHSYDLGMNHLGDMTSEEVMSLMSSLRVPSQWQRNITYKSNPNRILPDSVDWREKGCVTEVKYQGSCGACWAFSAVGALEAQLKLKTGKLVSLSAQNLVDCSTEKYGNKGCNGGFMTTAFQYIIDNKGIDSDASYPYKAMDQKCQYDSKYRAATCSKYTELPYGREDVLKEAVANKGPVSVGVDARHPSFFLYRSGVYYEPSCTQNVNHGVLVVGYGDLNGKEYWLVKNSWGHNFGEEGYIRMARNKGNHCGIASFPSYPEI
- assay explanation: Inhibition of human recombinant cathepsin S using Z-Phe-Arg-pNA as substrate after 10 mins by […] analysis
readout label: pKi
The value called pKi is obtained by taking minus log10 of the concentration in mol/L.

structure: CN(C)c1cccc2c(S(=O)(=O)NC3(C(=O)NCC#N)CCCCC3)cccc12
study system: Cathepsin S (Homo sapiens)
pKi: 5.18

Qu. Note down pKi recorded for CCN(CC)c1ccc2cc(C(=O)NC3(C(=O)NCC#N)CCCCC3)c(=O)oc2c1
Ans. 5.08

---

- assay explanation: Inhibition of human cathepsin L using Z-Phe-Arg-pNA as substrate after 10 mins by […] analysis
readout label: Ki (µM)
Write the value in µM as a bare number.

Qu. Tell us which Ki value is on record for CCN(CC)c1ccc2cc(C(=O)NC3(C(=O)NCC#N)CCCCC3)c(=O)oc2c1
Ans. 18
